# TESTED TARGET: recombinant sEH (Homo sapiens)
# ASSAY COMMENT: biochemical screening assay for inhibition of soluble epoxide hydrolase (fluorometric, Phome substrate)
# Excerpt: The ability of the compounds of the formula I to inhibit soluble epoxide hydrolase can be determined as follows: […] Fluorescence can be measured with any suitable detector for instance a TECAN Safire or Tecan Ultra at […]. % inhibition of recombinant sEH activity is used for calculation of corresponding IC50 values as illustrated and described in the examples. […]
METRIC: IC50 (nM)

# COMPOUND, IC50 [nM]
rows = [
    ("O=C(NCCc1cccs1)N[C@H]1CO[C@H]2[C@@H]1OC[C@@H]2C#Cc1ccccc1 [Example 296]", 100),
    ("COc1cc(NC(=O)N[C@H]2CO[C@H]3[C@@H]2OC[C@@H]3C#Cc2ccsc2)cc(OC)c1 [Example 301]", 104),
    ("Cc1cc(C)cc(NC(=O)NC2COC3C(C#N)COC23)c1 (stereo not shown) [Example 381]", 108),
    ("Cc1nnc(S[C@H]2CO[C@H]3[C@@H]2OC[C@@H]3NC(=O)NC2CCCCC2)o1 [Example 43]", 86),
]

====

# TESTED TARGET: recombinant sEH (Homo sapiens)
# Sequence (P34913 1-555): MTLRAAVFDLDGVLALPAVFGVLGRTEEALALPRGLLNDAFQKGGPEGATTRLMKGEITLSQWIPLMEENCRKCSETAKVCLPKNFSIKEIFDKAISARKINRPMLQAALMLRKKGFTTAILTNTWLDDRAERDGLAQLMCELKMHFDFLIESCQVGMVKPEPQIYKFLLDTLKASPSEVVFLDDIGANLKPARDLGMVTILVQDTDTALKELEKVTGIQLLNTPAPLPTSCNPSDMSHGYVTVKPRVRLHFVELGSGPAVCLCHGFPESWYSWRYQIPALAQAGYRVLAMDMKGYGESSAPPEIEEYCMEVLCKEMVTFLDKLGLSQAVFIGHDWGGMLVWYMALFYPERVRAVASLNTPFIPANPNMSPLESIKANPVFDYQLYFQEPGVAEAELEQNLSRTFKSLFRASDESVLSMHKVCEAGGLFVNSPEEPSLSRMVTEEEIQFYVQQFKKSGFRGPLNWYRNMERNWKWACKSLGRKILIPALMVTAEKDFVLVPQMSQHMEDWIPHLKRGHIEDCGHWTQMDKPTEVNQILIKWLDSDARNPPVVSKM
# ASSAY COMMENT: biochemical screening assay for inhibition of soluble epoxide hydrolase (fluorometric, Phome substrate)
METRIC: IC50 (nM)

# COMPOUND, IC50, nM
measured = [
    ("Cc1ncccc1O[C@H]1CO[C@H]2[C@@H]1OC[C@@H]2NC(=O)NCc1ccccn1 [Example 172]", 1240),
    ("Cc1ncccc1O[C@H]1CO[C@H]2[C@@H]1OC[C@@H]2NC(=O)NC1CCCC(C)C1C (stereo partly shown) [Example 261]", 3),
    ("Cc1ncccc1O[C@H]1CO[C@H]2[C@@H]1OC[C@@H]2NC(=O)NC1CCCCC1C(F)(F)F (stereo partly shown) [Example 275]", 19),
    ("O=C(NCCc1cccs1)N[C@H]1CO[C@H]2[C@@H]1OC[C@@H]2C#Cc1ccsc1 [Example 313]", 56),
    ("Cc1ncccc1O[C@H]1CO[C@H]2[C@@H]1OC[C@@H]2NC(=O)NC1CC(=O)N(C(C)C)C1 (stereo partly shown) [Example 246]", 317),
]

(a) CCCCOc1ccc(NC(=O)NC2COC3C(C#Cc4ccccc4)COC23)cc1 (stereo not shown) [Example 283]
(b) CCCCOc1ccc(NC(=O)NC2COC3C(CCc4ccccc4)COC23)cc1 (stereo not shown) [Example 351]
Q. Sort a and b by IC50 descending and give the first. Identify your selection by its label.
A. b
(b: 161 nM, a: 70 nM)
